Cited source: the Human Domainome abundance scans (Beltran et al. 2025)

List of abundance fitness values.
B1: Homeobox protein cut-like 2, residues 895 to 963; numbered along this chain, O14529 (parent)
chain: EVDTLELTRQVKEKLAKNGICQRIFGEKVLGLSQGSVSDMLSRPKPWSKLTQKGREPFIRMQLWLSDQL

Variants of: B1
assay-notes: abundance fitness (aPCA) (normalised: wild type 0, dead -1); higher = more abundant; growth selection in yeast, the domain comes from the species named
assay-conditions: Homo sapiens

Would you please look over these solved cases?
mutation_key=L50A reported_endpoint="abundance fitness" result=-0.748
mutation_key=L30V reported_endpoint="abundance fitness" result=-0.275
mutation_key=E56F reported_endpoint="abundance fitness" result=-0.362
mutation_key=Q52I reported_endpoint="abundance fitness" result=-0.06
mutation_key=L5P reported_endpoint="abundance fitness" result=-0.076

Problem: Param item = G19E ; retrieve measured abundance fitness.
Solution: -0.46

Problem: Moving on to the next variant: N18V
Solution: -0.075

Problem: Moving on to the next variant: R23S
Solution: -0.101
